- Tested on: HCC-827
- assay comment: relative viability (nuclei count vs DMSO), 5 days (fraction); higher = more cells survive
- condition info: first compound 2 µM
measure: relative viability
Keep it simple and answer with nothing but the number.

See these solved cases before continuing.
- compound: "Cc1csc(=NC2CCCCC2)n1/N=C/c1ccc(O)c(O)c1O [MIM1] + COc1cccc2cc(-c3nc([C@H]4CC[C@H](C(=O)O)CC4)n4ncnc(N)c34)[nH]c12 [OSI-027] (partner 0.5 µM)"
  relative viability: 0.695
- compound: "Cc1csc(=NC2CCCCC2)n1/N=C/c1ccc(O)c(O)c1O [MIM1] + C[C@]1(O)C[C@@H](c2nc(-c3ccc4ccc(-c5ccccc5)nc4c3)c3c(N)nccn32)C1 [Linsitinib] (partner 1 µM)"
  relative viability: 0.959
- compound: "CN1CCN(CCOc2cc(OC3CCOCC3)c3c(Nc4c(Cl)ccc5c4OCO5)ncnc3c2)CC1 [Saracatinib] + CC(C)C[C@H](NC(=O)[C@H](Cc1ccccc1)NC(=O)c1cnccn1)B(O)O [Bortezomib] (partner 0.002 µM)"
  relative viability: 0.306

Indicate the recorded relative viability value for this compound: CN1CCN(CCOc2cc(OC3CCOCC3)c3c(Nc4c(Cl)ccc5c4OCO5)ncnc3c2)CC1 [Saracatinib] + COc1cc2c(Oc3ccc(NC(=O)C4(C(=O)Nc5ccc(F)cc5)CC4)cc3F)ccnc2cc1OCCCN1CCOCC1 [Foretinib] (partner 0.25 µM)
0.17

====

- System: SK-LU-1
- assay comment: relative viability (nuclei count vs DMSO), 5 days (fraction); higher = more cells survive
- condition info: first compound 6.325 µM
Measured relative viability determines class: zone 1 = under 0.3, zone 2 = from 0.3 up to 0.7, zone 3 = 0.7 and over

- compound: "Cc1csc(=NC2CCCCC2)n1/N=C/c1ccc(O)c(O)c1O [MIM1] + CCNC(=O)c1noc(-c2cc(C(C)C)c(O)cc2O)c1-c1ccc(CN2CCOCC2)cc1 [Luminespib] (partner 0.01 µM)"
  label class: "zone 1"
- compound: "Cc1csc(=NC2CCCCC2)n1/N=C/c1ccc(O)c(O)c1O [MIM1] + O=C(c1cc(Cc2n[nH]c(=O)c3ccccc23)ccc1F)N1CCN(C(=O)C2CC2)CC1 [Olaparib] (partner 8 µM)"
  label class: "zone 1"
- compound: "Cc1csc(=NC2CCCCC2)n1/N=C/c1ccc(O)c(O)c1O [MIM1] + COc1cccc2cc(-c3nc([C@H]4CC[C@H](C(=O)O)CC4)n4ncnc(N)c34)[nH]c12 [OSI-027] (partner 0.5 µM)"
  label class: "zone 2"
- compound: "Cc1csc(=NC2CCCCC2)n1/N=C/c1ccc(O)c(O)c1O [MIM1] + Nc1ncn([C@H]2C[C@H](O)[C@@H](CO)O2)c(=O)n1 [Decitabine] (partner 2 µM)"
  label class: "zone 2"
- compound: "Cc1csc(=NC2CCCCC2)n1/N=C/c1ccc(O)c(O)c1O [MIM1] + CS(=O)(=O)N1CCN(Cc2cc3nc(-c4cccc5[nH]ncc45)nc(N4CCOCC4)c3s2)CC1 [Pictilisib] (partner 1 µM)"
  label class: "zone 2"
- compound: "Cc1csc(=NC2CCCCC2)n1/N=C/c1ccc(O)c(O)c1O [MIM1] + Cc1cc(Nc2cc(N3CCN(C)CC3)nc(Sc3ccc(NC(=O)C4CC4)cc3)n2)n[nH]1 [Tozasertib] (partner 0.1 µM)"
  label class: "zone 1"
- compound: "Cc1csc(=NC2CCCCC2)n1/N=C/c1ccc(O)c(O)c1O [MIM1] + Nc1nc2[nH]cc(CCc3ccc(C(=O)N[C@@H](CCC(=O)O)C(=O)O)cc3)c2c(=O)[nH]1 [Pemetrexed] (partner 0.2 µM)"
  label class: "zone 3"

Tag the class for Cc1csc(=NC2CCCCC2)n1/N=C/c1ccc(O)c(O)c1O [MIM1] + C[C@]1(O)C[C@@H](c2nc(-c3ccc4ccc(-c5ccccc5)nc4c3)c3c(N)nccn32)C1 [Linsitinib] (partner 1 µM)
zone 3

====

- System: HCC-15
- assay comment: relative viability (nuclei count vs DMSO), 5 days (fraction); higher = more cells survive
- condition info: first compound 0.02 µM
measure: relative viability
Please give only the number in your answer, with no unit.

Tell us which relative viability value is on record for CN1CCN(CCOc2cc(OC3CCOCC3)c3c(Nc4c(Cl)ccc5c4OCO5)ncnc3c2)CC1 [Saracatinib] + Cc1cc(Nc2cc(N3CCN(C)CC3)nc(Sc3ccc(NC(=O)C4CC4)cc3)n2)n[nH]1 [Tozasertib] (partner 0.1 µM)
0.403

Consider the molecule CCNC(=O)c1noc(-c2cc(C(C)C)c(O)cc2O)c1-c1ccc(CN2CCOCC2)cc1 [Luminespib] + C[C@@H](Oc1cc(-c2cnn(C3CCNCC3)c2)cnc1N)c1c(Cl)ccc(F)c1Cl [Crizotinib] (partner 1 µM) . State its measured relative viability.
0.901

Identify the reported relative viability for the following entry. CCNC(=O)c1noc(-c2cc(C(C)C)c(O)cc2O)c1-c1ccc(CN2CCOCC2)cc1 [Luminespib] + O=C(c1cc(Cc2n[nH]c(=O)c3ccccc23)ccc1F)N1CCN(C(=O)C2CC2)CC1 [Olaparib] (partner 8 µM)
0.734

====

As shown below, each of these molecules has a reported relative viability value.
- Test system: NCI-H647
- assay comment: relative viability (nuclei count vs DMSO), 5 days (fraction); higher = more cells survive
- condition info: first compound 2.53 µM

- molecule: "Nc1cccc2c1CN(C1CCC(=O)NC1=O)C2=O (configuration not stated) [Lenalidomide] + CC(=O)Nc1cccc(-n2c(=O)n(C3CC3)c(=O)c3c(Nc4ccc(I)cc4F)n(C)c(=O)c(C)c32)c1 [Trametinib] (partner 0.02 µM)"
  measured: 0.691

// fetch relative viability for Nc1cccc2c1CN(C1CCC(=O)NC1=O)C2=O (configuration not stated) [Lenalidomide] + CS(=O)(=O)N1CCN(Cc2cc3nc(-c4cccc5[nH]ncc45)nc(N4CCOCC4)c3s2)CC1 [Pictilisib] (partner 1 µM) ; system: NCI-H647
0.535

Give the observed relative viability of Nc1cccc2c1CN(C1CCC(=O)NC1=O)C2=O (configuration not stated) [Lenalidomide] + Nc1nc2[nH]cc(CCc3ccc(C(=O)N[C@@H](CCC(=O)O)C(=O)O)cc3)c2c(=O)[nH]1 [Pemetrexed] (partner 0.2 µM) for NCI-H647.
0.178

Quote NCI-H647 relative viability for entry Nc1cccc2c1CN(C1CCC(=O)NC1=O)C2=O (configuration not stated) [Lenalidomide] + NC(=O)Nc1cc(-c2cccc(F)c2)sc1C(=O)N[C@H]1CCCNC1 [AZD7762] (partner 0.2 µM) .
0.499

State relative viability (NCI-H647) of Nc1cccc2c1CN(C1CCC(=O)NC1=O)C2=O (configuration not stated) [Lenalidomide] + CS(=O)(=O)CCNCc1ccc(-c2ccc3ncnc(Nc4ccc(OCc5cccc(F)c5)c(Cl)c4)c3c2)o1 [Lapatinib] (partner 2 µM) .
1.46

Provide relative viability, tested on NCI-H647, for Nc1cccc2c1CN(C1CCC(=O)NC1=O)C2=O (configuration not stated) [Lenalidomide] + COc1cccc2cc(-c3nc([C@H]4CC[C@H](C(=O)O)CC4)n4ncnc(N)c34)[nH]c12 [OSI-027] (partner 0.5 µM) .
1.02

Report relative viability from NCI-H647 testing of Nc1cccc2c1CN(C1CCC(=O)NC1=O)C2=O (configuration not stated) [Lenalidomide] + CC1(C)CCC(c2ccc(Cl)cc2)=C(CN2CCN(c3ccc(C(=O)NS(=O)(=O)c4ccc(N[C@H](CCN5CCOCC5)CSc5ccccc5)c(S(=O)(=O)C(F)(F)F)c4)cc3)CC2)C1 [Navitoclax] (partner 0.5 µM)
1.4

====

- System: SW 1573
- assay comment: relative viability (nuclei count vs DMSO), 5 days (fraction); higher = more cells survive
- condition info: first compound 20 µM
List of relative viability values.
// print number alone

Enter measured relative viability, system SW 1573, for the compound shown: Cc1csc(=NC2CCCCC2)n1/N=C/c1ccc(O)c(O)c1O [MIM1] + COc1cc2c(Oc3ccc(NC(=O)C4(C(=O)Nc5ccc(F)cc5)CC4)cc3F)ccnc2cc1OCCCN1CCOCC1 [Foretinib] (partner 0.25 µM)
0.539

Answer briefly: relative viability recorded on SW 1573 for Cc1csc(=NC2CCCCC2)n1/N=C/c1ccc(O)c(O)c1O [MIM1] + COc1cccc2cc(-c3nc([C@H]4CC[C@H](C(=O)O)CC4)n4ncnc(N)c34)[nH]c12 [OSI-027] (partner 0.5 µM)
0.0875

Please report the measured relative viability for Cc1csc(=NC2CCCCC2)n1/N=C/c1ccc(O)c(O)c1O [MIM1] + Cc1cc(Nc2cc(N3CCN(C)CC3)nc(Sc3ccc(NC(=O)C4CC4)cc3)n2)n[nH]1 [Tozasertib] (partner 0.1 µM) tested on SW 1573.
0.128

// output relative viability; input Cc1csc(=NC2CCCCC2)n1/N=C/c1ccc(O)c(O)c1O [MIM1] + Nc1ncn([C@H]2C[C@H](O)[C@@H](CO)O2)c(=O)n1 [Decitabine] (partner 2 µM) ; system SW 1573
0.166

Quote SW 1573 relative viability for entry Cc1csc(=NC2CCCCC2)n1/N=C/c1ccc(O)c(O)c1O [MIM1] + C[C@@H](Oc1cc(-c2cnn(C3CCNCC3)c2)cnc1N)c1c(Cl)ccc(F)c1Cl [Crizotinib] (partner 1 µM) .
0.451
